Target: T1, Mtw1-Nnf1 heterodimer (MN) (S. cerevisiae, UniProt P39731 1-289; P47149 1-201)
T1 construct: Mtw1, S. cerevisiae; Nnf1, S. cerevisiae; also called Mtw1/Nnf1 dimer; MN complex; source: E. coli BL21 (DE3), purified (HisTrap, Q flow-through, SEC); not shown: His6, N-terminal, kept
T1 sequence (looked up) 1: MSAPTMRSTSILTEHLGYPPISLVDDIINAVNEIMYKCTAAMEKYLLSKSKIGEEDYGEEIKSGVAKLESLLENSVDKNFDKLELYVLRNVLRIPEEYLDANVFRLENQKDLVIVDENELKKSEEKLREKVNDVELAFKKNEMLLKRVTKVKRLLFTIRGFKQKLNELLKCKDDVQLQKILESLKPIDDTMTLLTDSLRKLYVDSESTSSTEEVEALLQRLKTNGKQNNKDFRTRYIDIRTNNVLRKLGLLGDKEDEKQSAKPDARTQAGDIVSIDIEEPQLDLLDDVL
T1 sequence (looked up) 2: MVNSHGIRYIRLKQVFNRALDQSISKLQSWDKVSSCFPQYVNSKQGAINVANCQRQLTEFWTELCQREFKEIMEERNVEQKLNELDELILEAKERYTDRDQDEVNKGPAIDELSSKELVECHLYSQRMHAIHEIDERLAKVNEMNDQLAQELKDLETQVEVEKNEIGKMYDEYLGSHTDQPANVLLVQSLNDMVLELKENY
Test: ITC; peptide (Mif2 1-41 250 μM or Ame1 1-20 800 μM) titrated into 25 μM MN; 30 mM Hepes pH 7.5, 150 mM NaCl, 1 mM TCEP, 25°C; one set of binding sites; average of 3 or 4 experiments
Conditions: both partners purified
Parameter: Kd. Scope: all listed entries.
Express your answer in µM, writing the number without its unit.

Looking up MDYMKLGLKSRKTGIDVKQDIPKDEYSMENIDDFFKDDETS (peptide, UniProt P35201 1-41, looked up, Mif2, S. cerevisiae, residues 1-41, unlabeled, used in ITC; also called Mif2-N) [Mif2^1-41 peptide] , I see its Kd listed as 1.17

Looking up MDRDTKLAFRLRGSHSRRTD (peptide, UniProt P38313 1-20, looked up, Ame1 (CENP-U homolog), S. cerevisiae, residues 1-20; also called Ame1^1-20; Ame1_1-20) [Ame1-N peptide (aa 1-20)] , I see its Kd listed as 12.5

The measurements presented in this section are drawn from paper PMC7360964.
